# System Tested: EGFR (human) (UniProt P00533)
# Sequence (P00533 whole entry, looked up): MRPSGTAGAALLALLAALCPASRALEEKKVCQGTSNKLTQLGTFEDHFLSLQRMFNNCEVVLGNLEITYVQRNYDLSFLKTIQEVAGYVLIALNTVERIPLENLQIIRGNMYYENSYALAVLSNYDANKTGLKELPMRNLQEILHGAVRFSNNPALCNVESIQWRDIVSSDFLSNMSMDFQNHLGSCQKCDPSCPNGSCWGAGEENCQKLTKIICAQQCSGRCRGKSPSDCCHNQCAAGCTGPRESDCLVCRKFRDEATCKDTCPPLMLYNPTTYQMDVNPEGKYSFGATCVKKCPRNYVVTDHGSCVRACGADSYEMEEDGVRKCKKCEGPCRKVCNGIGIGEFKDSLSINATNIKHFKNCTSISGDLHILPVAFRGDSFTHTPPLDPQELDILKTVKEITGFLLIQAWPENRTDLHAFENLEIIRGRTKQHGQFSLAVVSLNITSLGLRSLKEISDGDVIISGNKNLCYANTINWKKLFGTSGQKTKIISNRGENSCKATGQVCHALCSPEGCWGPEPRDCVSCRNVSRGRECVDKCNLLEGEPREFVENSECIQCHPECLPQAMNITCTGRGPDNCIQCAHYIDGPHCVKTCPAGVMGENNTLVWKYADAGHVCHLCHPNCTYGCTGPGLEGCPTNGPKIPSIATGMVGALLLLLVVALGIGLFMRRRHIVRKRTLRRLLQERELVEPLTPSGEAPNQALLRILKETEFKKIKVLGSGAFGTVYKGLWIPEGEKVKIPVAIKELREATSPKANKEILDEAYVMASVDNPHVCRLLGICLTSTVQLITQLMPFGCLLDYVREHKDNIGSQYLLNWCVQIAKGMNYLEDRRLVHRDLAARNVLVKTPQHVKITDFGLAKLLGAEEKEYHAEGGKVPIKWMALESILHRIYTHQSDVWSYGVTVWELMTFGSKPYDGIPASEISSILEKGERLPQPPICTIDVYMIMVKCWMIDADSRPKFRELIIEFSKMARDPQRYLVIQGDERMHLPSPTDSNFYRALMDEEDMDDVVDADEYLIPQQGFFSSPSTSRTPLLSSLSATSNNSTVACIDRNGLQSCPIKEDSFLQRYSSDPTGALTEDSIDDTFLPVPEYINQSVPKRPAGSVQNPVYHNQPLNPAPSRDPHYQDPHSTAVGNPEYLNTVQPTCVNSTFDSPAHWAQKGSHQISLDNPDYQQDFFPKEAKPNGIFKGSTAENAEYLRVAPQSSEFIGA
# Assay Setup: sk-br-3
Measured Attribute: IC50 (µg/mL)

[[record]]
structure_smiles = "N#Cc1cnc2cc3ccccc3cc2c1Nc1ccc(F)c(Cl)c1"
system_tested = "EGFR (human) (UniProt P00533)"
measured_attribute = "IC50"
readout_relation = "="
observed = 1.01

[[record]]
structure_smiles = "COc1cc2cc3c(Nc4ccc(OCc5ccccc5)c(Cl)c4)c(C#N)cnc3cc2cc1OCCN1CCOCC1"
system_tested = "EGFR (human) (UniProt P00533)"
measured_attribute = "IC50"
readout_relation = "="
observed = 3.5

[[record]]
structure_smiles = "N#Cc1cnc2c(oc3ccccc32)c1Nc1cccc(Br)c1"
system_tested = "EGFR (human) (UniProt P00533)"
measured_attribute = "IC50"
readout_relation = ">"
observed = 5

[[record]]
structure_smiles = "N#Cc1cnc2c(sc3ccccc32)c1Nc1cccc(Br)c1"
system_tested = "EGFR (human) (UniProt P00533)"
measured_attribute = "IC50"
readout_relation = ">"
observed = 5

[[record]]
structure_smiles = "N#Cc1cnc2c(sc3ccc(N)cc32)c1Nc1cccc(Br)c1"
system_tested = "EGFR (human) (UniProt P00533)"
measured_attribute = "IC50"
readout_relation = ">"
observed = 5

[[record]]
structure_smiles = "C=CC(=O)Nc1ccc2sc3c(Nc4cccc(Br)c4)c(C#N)cnc3c2c1"
system_tested = "EGFR (human) (UniProt P00533)"
measured_attribute = "IC50"
readout_relation = "="
observed = 0.224

